molecular target: Pim-2 (Homo sapiens, UniProt Q9P1W9); construct: full-length human recombinant His6-labelled Pim-1, Pim-2 or Pim-3 protein; His6; assay: TR-FRET assay of Pim kinase activity (phosphorylation of Bad Ser112), Pim-2; conditions: ATP 40 μM, read-out: IC50 Pim2
Sequence (Q9P1W9 whole entry): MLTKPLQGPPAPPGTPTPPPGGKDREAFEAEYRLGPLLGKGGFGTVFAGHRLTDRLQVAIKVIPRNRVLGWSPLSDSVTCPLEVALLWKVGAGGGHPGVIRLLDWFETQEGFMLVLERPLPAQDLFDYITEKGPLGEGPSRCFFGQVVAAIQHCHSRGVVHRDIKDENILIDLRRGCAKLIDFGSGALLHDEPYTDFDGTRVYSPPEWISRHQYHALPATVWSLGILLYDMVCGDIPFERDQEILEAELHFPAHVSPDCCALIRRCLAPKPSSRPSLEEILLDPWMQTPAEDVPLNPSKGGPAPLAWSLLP
IC50 values, listed per item
recordedMetric: IC50

INSERT INTO measurements (compound, recordedmetric, recordedresult) VALUES
  ('O=C(NCCCN1CCOCC1)c1ccc(-c2c(F)cnc3[nH]c4cnc(-c5cccnc5)cc4c23)cc1 [Example 19]', 'IC50', '0.1 to 1 µM'),
  ('CN(C)CCCCNC(=O)c1ccc(-c2c(F)cnc3[nH]c4cnc(-c5cccnc5)cc4c23)cc1 [Example 75]', 'IC50', '0.1 to 1 µM'),
  ('CN(C)CCNC(=O)c1ccc(-c2c(F)cnc3[nH]c4cnc(-c5cccnc5)cc4c23)cc1F [Example 113]', 'IC50', '0.1 to 1 µM'),
  ('O=C(NCCNc1ccccn1)c1ccc(-c2c(F)cnc3[nH]c4cnc(-c5cccnc5)cc4c23)cc1 [Example 78]', 'IC50', '0.1 to 1 µM'),
  ('CN1CCC(CNC(=O)c2ccc(-c3c(F)cnc4[nH]c5cnc(-c6cccnc6)cc5c34)cc2)CC1 [Example 25]', 'IC50', '1 to 5 µM'),
  ('NCCNC(=O)c1ccc(-c2c(F)cnc3[nH]c4cnc(-c5cccnc5)cc4c23)cc1 [Example 28]', 'IC50', '< 0.1 µM'),
  ('CC(C)(CNC(=O)c1ccc(-c2c(F)cnc3[nH]c4cnc(-c5cccnc5)cc4c23)cc1)N1CCCC1 [Example 58]', 'IC50', '0.1 to 1 µM'),
  ('CN1CC(NC(=O)c2ccc(-c3c(F)cnc4[nH]c5cnc(-c6cccnc6)cc5c34)cc2)C1 [Example 56]', 'IC50', '< 0.1 µM'),
  ('O=C(NCCNc1ccccc1)c1ccc(-c2c(F)cnc3[nH]c4cnc(-c5cccnc5)cc4c23)cc1 [Example 50]', 'IC50', '> 5 µM'),
  ('CNCCNC(=O)c1ccc(-c2c(F)cnc3[nH]c4cnc(-c5cccnc5)cc4c23)cc1 [Example 88]', 'IC50', '< 0.1 µM'),
  ('O=C(NCCN1CCOCC1)c1ccc(-c2c(F)cnc3[nH]c4cnc(-c5cccnc5)cc4c23)cc1 [Example 21]', 'IC50', '1 to 5 µM'),
  ('CCN(CC)CCN(C)C(=O)c1ccc(-c2c(F)cnc3[nH]c4cnc(-c5cccnc5)cc4c23)cc1 [Example 71]', 'IC50', '1 to 5 µM'),
  ('N[C@@H]1CCC[C@H]1NC(=O)c1ccc(-c2c(F)cnc3[nH]c4cnc(-c5cccnc5)cc4c23)cc1 [Example 86]', 'IC50', '< 0.1 µM'),
  ('CN(C)CCCNC(=O)c1ccc(-c2c(F)cnc3[nH]c4cnc(-c5cccnc5)cc4c23)cc1 [Example 10]', 'IC50', '0.1 to 1 µM'),
  ('O=C(NCCNCCO)c1ccc(-c2c(F)cnc3[nH]c4cnc(-c5cccnc5)cc4c23)cc1 [Example 27]', 'IC50', '< 0.1 µM');

----------
Target: Pim-3 (Homo sapiens)
Construct: full-length human recombinant His6-labelled Pim-1, Pim-2 or Pim-3 protein; His6; made in house
Assay: TR-FRET assay of Pim kinase activity (phosphorylation of Bad Ser112), Pim-3
Assay type: biochemical
Details: ATP 40 μM, read-out: IC50 Pim3
Method: In order to determine the inhibition of Pim kinase activity, the compounds of the invention are tested in accordance with a routinely-used in-vitro TR-FRET assay (“Time Resolved-Fluorescence Resonance Energy Transfer”). […] For the assay, the following reagents are used: […]
pIC50: −log10 of the molar value.
pIC50 values, listed per item
recordedMetric: pIC50

INSERT INTO measurements (smilesstructure, recordedmetric, recordedresult) VALUES
  ('COCCOc1cnc2[nH]c3cnc(-c4cccnc4)cc3c2c1-c1ccc(C(=O)NCCN(C)C)cc1', 'pIC50', '> 7.00'),
  ('O=C(c1ccc(-c2c(F)cnc3[nH]c4cnc(-c5cccnc5)cc4c23)cc1)N1CCOCC1', 'pIC50', '6.00 to 7.00'),
  ('O=C(NCc1ncc[nH]1)c1ccc(-c2c(F)cnc3[nH]c4cnc(-c5cccnc5)cc4c23)cc1', 'pIC50', '> 7.00'),
  ('CN1CCN(CCNC(=O)c2ccc(-c3c(F)cnc4[nH]c5cnc(-c6cccnc6)cc5c34)cc2)CC1', 'pIC50', '> 7.00'),
  ('CN1CCN(C(=O)c2ccc(-c3c(F)cnc4[nH]c5cnc(-c6cccnc6)cc5c34)cc2)CC1', 'pIC50', '6.00 to 7.00'),
  ('O=C(NCCCN1CCCC1=O)c1ccc(-c2c(F)cnc3[nH]c4cnc(-c5cccnc5)cc4c23)cc1', 'pIC50', '6.00 to 7.00'),
  ('N[C@@H]1CCCC[C@H]1NC(=O)c1ccc(-c2c(F)cnc3[nH]c4cnc(-c5cccnc5)cc4c23)cc1', 'pIC50', '> 7.00');

----------
IC50 values, listed per item
molecular target: Pim-3 (Homo sapiens, UniProt Q86V86); construct: full-length human recombinant His6-labelled Pim-1, Pim-2 or Pim-3 protein; His6; made in house; assay: TR-FRET assay of Pim kinase activity (phosphorylation of Bad Ser112), Pim-3; assay type: biochemical; details: ATP 40 μM, read-out: IC50 Pim3
recordedMetric: IC50

INSERT INTO measurements (smilesstructure, targetsystem, recordedresult) VALUES
  ('CN(C)CCCN(C)C(=O)c1ccc(-c2c(F)cnc3[nH]c4cnc(-c5cccnc5)cc4c23)cc1', 'Pim-3 (Homo sapiens, UniProt Q86V86)', '< 0.1 µM'),
  ('Cc1n[nH]cc1CNC(=O)c1ccc(-c2c(F)cnc3[nH]c4cnc(-c5cccnc5)cc4c23)cc1', 'Pim-3 (Homo sapiens, UniProt Q86V86)', '< 0.1 µM'),
  ('CN(C)CCN(C)C(=O)c1ccc(-c2c(F)cnc3[nH]c4cnc(-c5cccnc5)cc4c23)cc1', 'Pim-3 (Homo sapiens, UniProt Q86V86)', '< 0.1 µM'),
  ('CN(C)CCNC(=O)c1ccc(-c2ccnc3[nH]c4cnc(-c5cnn(C)c5)cc4c23)cc1', 'Pim-3 (Homo sapiens, UniProt Q86V86)', '< 0.1 µM'),
  ('CN1CCC(CNC(=O)c2ccc(-c3c(F)cnc4[nH]c5cnc(-c6cccnc6)cc5c34)cc2)CC1', 'Pim-3 (Homo sapiens, UniProt Q86V86)', '< 0.1 µM'),
  ('O=C(NCc1ccnc(O)c1)c1ccc(-c2c(F)cnc3[nH]c4cnc(-c5cccnc5)cc4c23)cc1', 'Pim-3 (Homo sapiens, UniProt Q86V86)', '< 0.1 µM'),
  ('O=C(NCCNCCO)c1ccc(-c2c(F)cnc3[nH]c4cnc(-c5cccnc5)cc4c23)cc1', 'Pim-3 (Homo sapiens, UniProt Q86V86)', '< 0.1 µM');

----------
EC50 values, listed per item
System: EOL-1
Assay: Cell viability assay (CellTiter-Blue), EOL-1;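 note: EOL-1 is an acute myeloid eosinophilic leukaemia line not a lymphoma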
Type: cell-based
Conditions: Homo sapiens, EOL1, read-out: EC50 EOL-1 μM (eosinophilic leukaemia), EOL-1 cells, read-out: EC50 EOL-1 μM (lymphoma)
Excerpt: The representative compounds of the invention are also screened as regards their effects on cell proliferation and viability, using a variety of tumoral cell lines of human source, representative of different pathological indications. These cell lines include: […]
recordedMetric: EC50

INSERT INTO measurements (compound, targetsystem, recordedresult) VALUES
  ('CC(CN(C)C)NC(=O)c1ccc(-c2c(F)cnc3[nH]c4cnc(-c5cccnc5)cc4c23)cc1 (stereo not shown)', 'EOL-1', '< 100 nM'),
  ('CN1CCN(CCNC(=O)c2ccc(-c3c(F)cnc4[nH]c5cnc(-c6cccnc6)cc5c34)cc2)CC1', 'EOL-1', '100 to 1000 nM'),
  ('CN1CC(NC(=O)c2ccc(-c3c(F)cnc4[nH]c5cnc(-c6cccnc6)cc5c34)cc2)C1', 'EOL-1', '< 100 nM'),
  ('CN1CCN(NC(=O)c2ccc(-c3c(F)cnc4[nH]c5cnc(-c6cccnc6)cc5c34)cc2)CC1', 'EOL-1', '< 100 nM'),
  ('O=C(NCCCN1CCCC1)c1ccc(-c2c(F)cnc3[nH]c4cnc(-c5cccnc5)cc4c23)cc1', 'EOL-1', '100 to 1000 nM'),
  ('CN1CCC(NC(=O)c2ccc(-c3c(F)cnc4[nH]c5cnc(-c6cccnc6)cc5c34)cc2)CC1', 'EOL-1', '100 to 1000 nM'),
  ('CN(C)CCCNC(=O)c1ccc(-c2c(F)cnc3[nH]c4cnc(-c5cnn(C)c5)cc4c23)cc1', 'EOL-1', '< 100 nM');
